target: UniProtKB Q16790; test: Inhibition of recombinant human CA 9 preincubated for 15 mins by phenol red dye based stopped flow CO2 hydration assay
The label is satisfied for Ki below 0.03 µM and not satisfied for Ki equal to or exceeding 0.03 µM.

NS(=O)(=O)c1ccc(Nc2nc(N/N=C/c3ccccn3)nc(Nc3ccccc3)n2)cc1 : satisfied

Req: Record NS(=O)(=O)c1ccc(Nc2nc(N/N=C/c3ccc(F)cc3)nc(Nc3ccccc3)n2)cc1 : is its Ki strictly below 0.03 µM?
Resp: not satisfied

Req: Check if Ki falls below 0.03 µM for NS(=O)(=O)c1ccc(Nc2nc(N/N=C/c3c[nH]c4ccccc34)nc(Nc3ccccc3)n2)cc1 .
Resp: satisfied

Req: Item Cc1ccc(/C=N/Nc2nc(Nc3ccccc3)nc(Nc3ccc(S(N)(=O)=O)cc3)n2)cc1 : Ki beneath 0.03 µM, strictly?
Resp: satisfied

Req: Does the reported Ki of the following compound sit strictly below 0.03 µM? CN(C)c1ccc(/C=N/Nc2nc(Nc3ccccc3)nc(Nc3ccc(S(N)(=O)=O)cc3)n2)cc1
Resp: satisfied

Req: Problem: For the compound CCCCc1nc(/C=N/Nc2nc(Nc3ccccc3)nc(Nc3ccc(S(N)(=O)=O)cc3)n2)c(Cl)[nH]1 , is Ki under 0.03 µM?
Resp: not satisfied

These entries and their values trace back to ChEMBL document CHEMBL5154747.
